Data provenance: the supplement of paper PMC10567573

B1: NFE2L1 (parent)
chain: TLDGYGIHPKSIDLDNYFTARRLL

# Variants of: B1
# EXPERIMENT DESCRIPTION: protein stability index of a GFP-peptide fusion (GPS, HEK-293T) (PSI 1-6); higher = more stable;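 note: lentivirally expressed fusions sorted by FACS into six bins by GFP to DsRed ratio, PSI derived from sequencing read proportions per bin multiplied by bin number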
# MEASUREMENT CONDITIONS: c terminus: a fixed tail appended
ASSAY METRIC: protein stability index
Give bare numbers.

Task item: State the recorded protein stability index for this entry: TLDGYGIHPKSIDLDNYFTARRHL [L23H]
Reply: 2.18

Here are 7 variants. What values of protein stability index were reported for them?
1. TLDGYGFHPKSIDLDNYFTARRLL [I7F]
2. TLDGYGIHPKSIDLDNYFTGRRLL [A20G]
3. TLSGYGIHPKSIDLDNYFTARRLL [D3S]
4. TLDGYGIHPKSIDLDNYFSARRLL [T19S]
5. TLDGHGIHPKSIDLDNYFTARRLL [Y5H]
6. TMDGYGIHPKSIDLDNYFTARRLL [L2M]
7. TLDGYGIHPKSIDLDGYFTARRLL [N16G]

Reply:
1: 1.62; 2: 1.71; 3: 1.71; 4: 1.9; 5: 2.12; 6: 2.04; 7: 1.21

// input: 7 variants below; output: protein stability index for each
1. TLDGWGIHPKSIDLDNYFTARRLL [Y5W]
2. TKDGYGIHPKSIDLDNYFTARRLL [L2K]
3. TLDGYGIHPKSIDLDNYNTARRLL [F18N]
4. TLDGYGILPKSIDLDNYFTARRLL [H8L]
5. TLDGYGIHPISIDLDNYFTARRLL [K10I]
6. TLWGYGIHPKSIDLDNYFTARRLL [D3W]
7. TLDGYGIHPKSIDLDIYFTARRLL [N16I]

Reply:
1: 1.97; 2: 2.19; 3: 3; 4: 1.67; 5: 1.94; 6: 1.47; 7: 3.1

# per-item lookup of protein stability index; items listed below
1. TLDGYGIHPKSIDLDNYFTARRPL [L23P]
2. TLDGYGIHPKSVDLDNYFTARRLL [I12V]
3. TLDGYGIHPKSIVLDNYFTARRLL [D13V]

Reply:
[2.54, 1.85, 1.76]
